Target Or Test System: IRAK-4 (Homo sapiens, UniProt Q9NWZ3)
Sequence (Q9NWZ3 1-460): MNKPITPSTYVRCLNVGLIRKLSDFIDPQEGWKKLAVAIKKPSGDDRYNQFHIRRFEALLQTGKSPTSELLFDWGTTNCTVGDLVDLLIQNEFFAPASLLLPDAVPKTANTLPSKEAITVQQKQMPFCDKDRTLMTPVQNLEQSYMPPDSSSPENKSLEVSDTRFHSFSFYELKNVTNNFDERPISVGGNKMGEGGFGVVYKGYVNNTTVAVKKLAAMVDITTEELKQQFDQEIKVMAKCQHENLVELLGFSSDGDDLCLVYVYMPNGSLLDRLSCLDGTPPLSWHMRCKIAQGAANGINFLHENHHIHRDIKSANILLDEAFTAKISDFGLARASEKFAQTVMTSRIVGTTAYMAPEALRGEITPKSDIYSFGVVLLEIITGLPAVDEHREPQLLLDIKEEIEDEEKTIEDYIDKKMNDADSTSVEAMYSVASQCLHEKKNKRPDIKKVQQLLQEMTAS
Protocol Notes: IRAK-4 ELISA, PBMC degradation
Format: cell-based
Set-up: endogenous in cells; host or cells: PBMC
Conditions Used: treated overnight
Description: Reagents: Human IRAK-4 Matched Antibody Pair Kit (Abcam ab218182) and ELISA Accessory Pack (Abcam ab210905). Cell Treatment and Lysis: 1. OCI-Ly10: 200,000 cells are seeded at 1×10^6/ml in 96-well U-bottom plates 200 ul per well, treated with compound the same day. Incubate overnight. 2. PBMC: 800,000 cells are seeded at 2×10^6/ml in 96-well U-bottom deep-well plates, 400 ul per well, treated with compound the same day. […] Cell lysate is collected and analyzed by ELISA for IRAK-4 levels.
# reported Dmax; entries follow

Worked cases, answers included:
CC(C)Oc1cc2c(cc1NC(=O)c1cnn3cccnc13)CN(C1CCN(C(C)(C)C3CN(c4ccc5c(c4)C(=O)N(C4CCC(=O)NC4=O)C5=O)C3)CC1)C2=O (stereo not shown) :: ≥ 90%
CC(C)Oc1cc2nn(C3CCN(CC4(F)CN(c5cccc6c5C(=O)N(C5CCC(=O)NC5=O)C6=O)C4)CC3)cc2cc1NC(=O)c1cnn2cccnc12 (stereo not shown) :: 80 to 90%
COc1cc2nn(C3CCN(CC4CN(c5ccc6c(c5)CN(C5CCC(=O)NC5=O)C6=O)C4)CC3)cc2cc1NC(=O)c1cnn2cccnc12 (stereo not shown) :: 80 to 90%
CC(C)Oc1cc2c(cc1NC(=O)c1cnn3cccnc13)CN(C1CCN(CC3CCN(c4ccc5c(c4)C(=O)N([C@@H]4CCC(=O)NC4=O)C5=O)CC3)CC1)C2=O :: ≥ 90%
CC(C)Oc1cc2c(cc1NC(=O)c1cnn3cccnc13)CN(C[C@@H](F)C1CCN(CC3CN(c4ccc5c(c4)C(=O)N(C4CCC(=O)NC4=O)C5=O)C3)CC1)C2=O (stereo partly shown) :: ≥ 90%

## Input Indicate its recorded Dmax; the compound in question is COc1cc(N2CC(F)(CN3CCC(n4cc5cc(NC(=O)c6cnn7cccnc67)c(OC(C)C)nc5n4)CC3)C2)cc2c1C(=O)N(C1CCC(=O)NC1=O)C2=O (stereo not shown)
## Output 70 to 80%

## Input Indicate its recorded Dmax; the compound in question is O=C1CCC(N2C(=O)c3ccc(N4CC(F)(CN5CCC(n6cc7cc(NC(=O)c8cnn9cccnc89)c(OCC(F)F)cc7n6)CC5)C4)cc3C2=O)C(=O)N1 (stereo not shown)
## Output 80 to 90%

## Input Indicate its recorded Dmax; the compound in question is O=C1CCC(N2C(=O)c3ccc(N4CCC(N5CCC(n6cc7cc(NC(=O)c8cnn9cccnc89)c(OCC8CC8)cc7n6)CC5)CC4)cc3C2=O)C(=O)N1 (stereo not shown)
## Output ≥ 90%

## Input Indicate its recorded Dmax; the compound in question is O=C1CCC(N2C(=O)c3ccc(N4CC[C@@H](O[C@H]5CC[C@H](n6cc7cc(NC(=O)c8cnn9cccnc89)c(OCC8CC8)cc7n6)CC5)C4)cc3C2=O)C(=O)N1 (stereo partly shown)
## Output ≥ 90%

## Input Indicate its recorded Dmax; the compound in question is O=C1CCC(N2Cc3cc(N4CC(F)(CN5CCC(N6Cc7cc(NC(=O)c8cnn9cccnc89)c(OCC8CC8)cc7C6=O)CC5)C4)ccc3C2=O)C(=O)N1 (stereo not shown)
## Output 70 to 80%

## Input Indicate its recorded Dmax; the compound in question is CCN(C1CCC(n2cc3cc(NC(=O)c4cnn5cccnc45)c(OCC4CC4)cc3n2)CC1)C1CN(c2ccc3c(c2)C(=O)N(C2CCC(=O)NC2=O)C3=O)C1 (stereo not shown)
## Output ≥ 90%

## Input Indicate its recorded Dmax; the compound in question is O=C1CCC(N2Cc3c(F)cc(N4CC(F)(CN5CCC(n6cc7cc(NC(=O)c8cnn9cccnc89)c(OCC8CC8)cc7n6)CC5)C4)cc3C2=O)C(=O)N1 (stereo not shown)
## Output ≥ 90%

## Input Indicate its recorded Dmax; the compound in question is COc1cc2nn(C3CCN(CC4(F)CN(c5ccc6c(c5)CN(C5CCC(=O)NC5=O)C6=O)C4)CC3)cc2cc1NC(=O)c1cnn2cccnc12 (stereo not shown)
## Output 80 to 90%

## Input Indicate its recorded Dmax; the compound in question is O=C1CCC(N2C(=O)c3ccc(N4CC(F)(CN5CCC(n6cc7cc(NC(=O)c8cnn9cccnc89)c(OC8CCCC8)cc7n6)CC5)C4)cc3C2=O)C(=O)N1 (stereo not shown)
## Output ≥ 90%

## Input Indicate its recorded Dmax; the compound in question is O=C1CCC(N2Cc3c(cccc3N3CC4(CCCN(C5CCC(n6cc7cc(NC(=O)c8cnn9cccnc89)c(OCC8CC8)cc7n6)CC5)C4)C3)C2=O)C(=O)N1 (stereo not shown)
## Output 80 to 90%
